Tested on: 786-0 renal
Experimental protocol: NCI tumour cell line growth inhibition, 48 h
Field: TGI. Provide a value for each of the compounds that follow.
One number for each entry, in µM.

O=C1/C(=C/c2cccc(Cl)c2Cl)N=C(c2ccccc2)N1C1CC1 ... 14.4

Now look at this one.
**Q:** // TGI lookup, key: Nc1nc(N)c2c3c(cnc2n1)CC(c1ccccc1)CC3 (stereo not given)
**A:** 24.3

====

Field: TGI. Provide a value for each of the molecules that follow.
System: UO-31 renal
Experimental protocol: NCI tumour cell line growth inhibition, 48 h
One number for each entry, in µM.

Sample answers from the record:
COc1cc2c(C)cc(O)cc2c2cc(O)c(C)cc12 ... 19.1
CCN1CCC(O)(c2ccc(OC)cc2)C(C(=O)c2ccc(OC)cc2)C1 (stereo unspecified) ... 35.3
COc1cc(-c2cc(-c3cc4c([nH]c5ccccc54)c(-c4cc(OC)c(OC)c(OC)c4)n3)cc(-c3ccccc3)n2)cc(OC)c1OC ... 74.4
CN=C(N=Nc1c(O)[nH]c2ccccc12)SCC(=O)c1ccc(Br)cc1 ... 3.79
N#Cc1c2ccccc2cn1-c1ccc(F)cc1 ... 39.6

Below are some molecules; for each one, tell me its TGI.
1. Cc1c(N=Nc2ccc(Cl)cc2)c(-c2ccccc2)n(C2OC(CO)C(O)C(O)C2O)c(=S)c1C#N (stereo unspecified)
2. CCCCCCOC(=O)/C=C/[C@]1(CO)C/C(=C/CC(C(C)C)C(C)C)C(=O)O1
3. O=[N+]([O-])/C(C(Cl)=C(Cl)Cl)=C(/Cl)Sc1ccccc1
4. COc1cc2c(cc1OCCCNC(=O)c1cccc3c(=O)c4ccccc4[nH]c13)N=C[C@@H]1CCCN1C2=O

**A:**
1. 34.2
2. 17.8
3. 3.02
4. 16.9

====

Test system: SK-MEL-28 melanoma
Experimental protocol: NCI tumour cell line growth inhibition, 48 h
Field: TGI. Provide a value for each of the compounds that follow.

Nc1nc(N)c2c3c(cnc2n1)CC(c1ccccc1)CC3 (stereo unspecified) ... > 100 µM

Below are some compounds; for each one, tell me its TGI.
1. C=C(C)[C@@H]1CC[C@]2(C)[C@H](CC=C3[C@@H]4CC(C)(C)CC[C@]4(C(N)=O)CC[C@]32C)[C@@]1(C)CCC#N
2. COC(=O)C(Cc1nc2ccc(Cl)cc2[nH]c1=O)/C(=N\N)C(=O)Nc1cc(C)c(Cl)cc1S(=O)(=O)O (stereo unspecified)
3. CC(C)=CC[C@]12CCN[C@H]1N(S(=O)(=O)c1ccccc1)c1ccccc12
4. N#Cc1c(-c2ccc(Cl)cc2Cl)nc2[nH][nH]c(=S)n2c1=O
5. COc1ccc(CC2NCCc3c2[nH]c2ccccc32)cc1 (stereo unspecified)

**A:**
["> 100 µM", "> 100 µM", "31.5 µM", "> 100 µM", "> 100 µM"]

Below are some compounds; for each one, tell me its TGI.
1. CN1C2CCC1CC(=CCOC(c1ccc(F)cc1)c1ccc(F)cc1)C2
2. C#C[C@]1(O)CCC2C3CCc4cc(O)ccc4C3CC[C@@]21C (stereo partly specified)
3. Cc1ncc(C(=O)Nc2ccc(CN3CCN(C)CC3)c(C(F)(F)F)c2)cc1C#Cc1cnc(N)c2ccncc12
4. CCOc1ccccc1NC(=O)C(=O)CC(=O)c1sc(Nc2nnc(-c3ccc(Cl)c(Cl)c3)o2)nc1C
5. COc1cc(NS(C)(=O)=O)ccc1Nc1c2ccccc2nc2c1[nH]c1ccc(NC3OC(CO)C(O)C(O)C3O)cc12 (stereo unspecified)
6. CC12CP(=O)(c3ccccc3)CC1C2(Cl)Cl (stereo unspecified)
7. O=C(O)C(NCc1ccccc1)C(NCc1ccccc1)C(=O)O (stereo unspecified)
8. CNCC#Cc1c(F)ccc2c1/C(=C/c1[nH]ccc1OC)C(=O)N2

**A:**
1: 47.9 µM; 2: 19.7 µM; 3: 2.82 µM; 4: > 100 µM; 5: 1.96 µM; 6: > 100 µM; 7: > 100 µM; 8: 2.88 µM

Below are some compounds; for each one, tell me its TGI.
1. CN=C(N=Nc1c(O)[nH]c2ccccc12)SCC(=O)c1ccc(Br)cc1
2. COc1ccc(-c2nc3ccc(-c4nc5ccc(N6CCN(c7ccccc7)CC6)cc5[nH]4)cc3[nH]2)cc1OC
3. CN=C1CC2c3cc(OC)c(OC)cc3CCN2C2=C1C(=O)CC(C)(C)C2 (stereo unspecified)
4. COc1ccc(S(=O)(=O)c2nnc(S(=O)(=O)Cc3ccccc3)s2)cc1
5. CN(C)CCCC12CCCCC1=Nc1ccccc12 (stereo unspecified)
6. Cn1c(=O)c2c(nc(Cc3ccccc3)n2CC(=O)O)n(C)c1=O
7. CN(C)CC1CCCC/C1=N/OC(=O)c1ccc(Cl)cc1 (stereo unspecified)
8. O=C(c1ccccc1)c1cc2ccccc2o1

**A:**
1: > 78.1 µM; 2: 3.24 µM; 3: > 100 µM; 4: 40.3 µM; 5: > 100 µM; 6: > 100 µM; 7: > 100 µM; 8: > 100 µM

====

Field: TGI. Provide a value for each of the compounds that follow.
System: HOP-62 NSCLC
Experimental protocol: NCI tumour cell line growth inhibition, 48 h

Sample answers from the record:
CCSc1ncnc2c1ncn2C1OC(CO)C(O)C1O (centres undefined) ... > 100 µM
CCC(C)COC(=O)c1ccc(N=Cc2ccc(C=Nc3ccc(C(=O)OCC(C)CC)cc3)cc2)cc1 (centres undefined) ... > 100 µM
COC(=O)C(Cc1c[nH]c2ccccc12)NP(=O)(O)OCC1OC(n2cc(I)c(=O)[nH]c2=O)CC1O (centres undefined) ... > 100 µM

Now look at this one.
**Q:** Give HOP-62 NSCLC TGI for Cc1[nH]nc(C(F)(F)F)c1N=NN1CCOCC1
**A:** 28.5 µM

====

System: MCF7 breast
Experimental protocol: NCI tumour cell line growth inhibition, 48 h
Field: TGI. Provide a value for each of the compounds that follow.
Answers are plain numbers, in µM.

Nc1nc(/C=C\c2ccc([N+](=O)[O-])s2)nc(N2CCCC2)n1 ... 16.1

Now look at this one.
**Q:** // TGI lookup, key: CC(C)Oc1ccc2cc(-c3nn(CC4CCNCC4)c4ncnc(N)c34)ccc2c1
**A:** 20.1

====

Field: TGI. Provide a value for each of the molecules that follow.
Test system: LXFL 529 NSCLC
Experimental protocol: NCI tumour cell line growth inhibition, 48 h

Sample answers from the record:
Cc1ccc(NC(=O)CCc2cc(C(C)(C)C)nc(=S)[nH]2)cc1C ... > 100 µM
COC1(OC)C(N(C)C)=C(Cl)C(=O)/C1=C/C=O ... > 100 µM
Cc1ccccc1N1C(=O)C2C=CC(n3[nH]c(=O)n(Cc4ccccc4)c3=O)CC2C1=O (stereo not given) ... > 100 µM
NCc1ccccc1-c1c2nc(c(-c3ccccc3CN)c3ccc([nH]3)c(-c3ccccc3CN)c3nc(c(-c4ccccc4CN)c4ccc1[nH]4)C=C3)C=C2 ... 46.5 µM

Now look at this one.
**Q:** // TGI lookup, key: CN=C1CC2c3cc(OC)c(OC)cc3CCN2C2=C1C(=O)CC(C)(C)C2 (stereo not given)
**A:** > 100 µM

====

Tested on: MDA-MB-435
Experimental protocol: NCI tumour cell line growth inhibition, 48 h
Param threshold (30 µM) applies to TGI; output satisfied when value >= threshold, not satisfied when value < threshold.

CCOC(=O)CN1C(=O)c2ccc(NC(=O)C(=O)O)cc2S1(=O)=O ... satisfied
O=C(Nc1nc(C23CC4CC(CC(C4)C2)C3)cs1)c1cc2ccc(O)cc2oc1=O ... satisfied
O=c1[nH]nc(Cc2ccccc2)n1/N=C/c1ccccc1O ... satisfied
O=C1C=CC(=O)c2cc3cc(CBr)ccc3cc21 ... satisfied
Oc1cc2cccc[n+]2c2cc(Cl)ccc12 ... not satisfied

**Q:** Answer whether TGI of COc1ccc(-[n+]2nc(S(=O)(=O)O)c(/C=C/c3ccc(N(C)C)cc3)cc2C#N)cc1 is greater than or equal to 30 µM.
**A:** satisfied

**Q:** CCC(/C=C/C1OC(=O)C=CC1C)=C\C(C)C/C=C/C(C)=C/C(C)C(=O)C(C)C(O)C(C)C/C(C)=C/C(=O)O (stereo unspecified) ?
**A:** not satisfied

====

System: COLO 205 colon
Experimental protocol: NCI tumour cell line growth inhibition, 48 h
Field: GI50. Provide a value for each of the compounds that follow.

Sample answers from the record:
CCC(/C=C/C1OC(=O)C=CC1C)=C\C(C)C/C=C/C(C)=C/C(C)C(=O)C(C)C(O)C(C)C/C(C)=C/C(=O)O (stereo not given) ... 0.00752 nM
COc1cc(Cn2c(-c3ccccc3)c(Cl)c3c2-c2oncc2CC3)cc(OC)c1 ... 8030 nM
O=C1Nc2ccccc2/C1=N\[O-].O=C1Nc2ccccc2/C1=N\[O-].[Cu+2] ... > 100000 nM
Cc1nn(-c2ccc(Cl)cc2)c2nc3c(nc12)C(=O)c1ccccc1-3 ... > 100000 nM
Cn1cc(C2=C(c3cn(CCCCO)c4ccccc34)C(=O)NC2=O)c2ccccc21 ... 7280 nM
COc1ccc2[nH]cc(C3(c4c[nH]c5ccc(OC)cc45)C(=O)Nc4ccc(F)cc43)c2c1 ... 1690 nM

Below are some compounds; for each one, tell me its GI50.
1. CN1C(=O)N(C)C2C1NN=c1s/c(=C\c3ccc(Cl)cc3Cl)c(=O)n12 (stereo not given)
2. O=C(CC1(O)C(=O)N(Cc2ccccc2)c2ccc(F)cc21)c1ccc(C(=O)NCC2CCC3(CC2)OOC2(CCCCC2)OO3)cc1 (stereo not given)
3. CCCN1C(=O)N(CCC)C2C1NC(=S)N2/N=C/C=C/c1ccccc1OC (stereo not given)
4. O=C1/C(=C/c2cccc(Cl)c2Cl)N=C(c2ccccc2)N1C1CC1

**A:**
1: 95.1 nM; 2: 728 nM; 3: 520 nM; 4: 15100 nM
